// data source = paper PMC9120017

- TARGET_ENTITY: mouse TMEM16A mutant I516A (Mus musculus, UniProt Q8BHY3, I516A)
- Construct: expressed in transfected cells; host or cells: HEK293T
- Sequence (Q8BHY3 whole entry I516A): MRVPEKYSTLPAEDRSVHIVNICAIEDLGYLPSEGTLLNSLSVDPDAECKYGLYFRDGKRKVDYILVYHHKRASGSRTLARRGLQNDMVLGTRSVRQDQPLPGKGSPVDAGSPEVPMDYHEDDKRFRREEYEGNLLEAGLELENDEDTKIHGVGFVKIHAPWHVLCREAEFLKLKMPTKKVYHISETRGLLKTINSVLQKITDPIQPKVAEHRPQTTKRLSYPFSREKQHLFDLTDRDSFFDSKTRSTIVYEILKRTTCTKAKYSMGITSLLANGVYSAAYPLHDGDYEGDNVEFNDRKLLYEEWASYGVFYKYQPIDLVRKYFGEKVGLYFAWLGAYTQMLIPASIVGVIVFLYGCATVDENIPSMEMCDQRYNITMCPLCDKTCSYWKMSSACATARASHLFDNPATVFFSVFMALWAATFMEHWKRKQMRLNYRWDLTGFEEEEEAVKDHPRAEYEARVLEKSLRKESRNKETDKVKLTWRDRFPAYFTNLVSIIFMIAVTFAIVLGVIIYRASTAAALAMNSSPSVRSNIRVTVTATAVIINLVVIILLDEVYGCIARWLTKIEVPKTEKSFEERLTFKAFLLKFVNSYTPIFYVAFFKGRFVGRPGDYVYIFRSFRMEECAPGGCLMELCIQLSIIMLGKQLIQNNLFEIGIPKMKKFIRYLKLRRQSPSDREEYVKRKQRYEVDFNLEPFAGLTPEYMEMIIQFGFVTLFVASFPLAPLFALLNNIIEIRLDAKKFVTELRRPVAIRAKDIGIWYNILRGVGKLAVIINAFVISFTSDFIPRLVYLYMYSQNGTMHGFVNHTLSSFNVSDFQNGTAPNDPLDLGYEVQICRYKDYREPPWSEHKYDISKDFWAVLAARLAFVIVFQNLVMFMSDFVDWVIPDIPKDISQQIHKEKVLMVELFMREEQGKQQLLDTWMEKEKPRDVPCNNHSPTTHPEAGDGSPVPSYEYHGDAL
- ASSAY_SUMMARY: Inside-out patch recording of 1PBC block, mutant I516A
- Assay type: cell-based
- COND: I516A; V -140 mV
pIC50: −log10 of the molar value.

>  <GIVEN_SMILES>
N#Cc1c(C(F)(F)F)cc(O)n2c1nc1ccccc12

>  <TARGET_ENTITY>
mouse TMEM16A mutant I516A (Mus musculus, UniProt Q8BHY3, I516A)

>  <pIC50>
4.77

$$$$
